# fold improvement of ka over 28A6 (parental) listing for each entry below
# measured target: T1, cynomolgus monkey IL-6 (cynomolgus monkey, UniProt P79341 28-212, limits assumed)
# T1 construct: Immobilised on the Biacore chip
# test details: SPR (Biacore), periplasmic Fab

Please review the following examples before continuing.
48H1 (Fab, V domains shown, Periplasmic Fab; Suffix 'g2, R4' not explained; also called 48H1g2, R4) VH: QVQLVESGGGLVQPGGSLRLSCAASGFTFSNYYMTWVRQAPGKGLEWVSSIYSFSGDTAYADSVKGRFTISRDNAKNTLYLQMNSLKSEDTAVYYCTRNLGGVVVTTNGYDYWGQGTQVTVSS VL: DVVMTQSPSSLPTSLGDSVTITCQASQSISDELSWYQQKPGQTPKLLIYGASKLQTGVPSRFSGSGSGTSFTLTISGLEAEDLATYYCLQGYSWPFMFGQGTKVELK : 0.88 fold
55C11 (Fab, V domains shown, Periplasmic Fab; Suffix 'f' not explained; also called 55C11f) VH: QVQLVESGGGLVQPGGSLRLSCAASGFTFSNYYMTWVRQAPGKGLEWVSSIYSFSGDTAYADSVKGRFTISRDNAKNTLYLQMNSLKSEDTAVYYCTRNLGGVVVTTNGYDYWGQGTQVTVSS VL: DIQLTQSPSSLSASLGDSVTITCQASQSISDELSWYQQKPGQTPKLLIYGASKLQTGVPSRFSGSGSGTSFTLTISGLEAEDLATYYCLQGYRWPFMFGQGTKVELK : 2.23 fold

Turning now to a further binder:
The recorded fold improvement of ka over 28A6 (parental) for 55E10 (Fab, V domains shown, Periplasmic Fab; Suffix 'g1' not explained; also called 55E10g1) VH: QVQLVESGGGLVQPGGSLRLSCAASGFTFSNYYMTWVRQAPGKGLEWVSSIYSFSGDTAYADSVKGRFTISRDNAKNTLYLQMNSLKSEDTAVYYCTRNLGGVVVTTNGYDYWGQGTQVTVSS VL: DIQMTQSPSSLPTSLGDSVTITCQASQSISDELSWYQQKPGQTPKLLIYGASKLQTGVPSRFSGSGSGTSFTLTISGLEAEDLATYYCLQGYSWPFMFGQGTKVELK is 1.13 fold

Sourced from patent US20220073604A1
